Origin of the recorded values: PubChem BioAssay (NCI)

System: UO-31 renal
Experiment: NCI-60 one-dose screen, 48 h
Details: 10 µM
This is part of a sample that, as a whole, favours compounds with a hit. Of some 83,000 tested, about 20% had one in any assay. Activity calls are given as the source filed them. Rule for the calls: active = growth percent below 10; inactive = the rest.
Please reply with one of these outcomes: active, inactive

Known results for compounds:
- compound: "COC1OC(COS(=O)OC)C(O)C(O)C1OS(=O)OC (stereo not given)"
  cat: "inactive"
- compound: "COc1ccc(-c2n[nH]nc2-c2cc(OC)c3c(c2OC)OCO3)cc1"
  cat: "inactive"
- compound: "COc1ccc(-c2cc(-c3ccc(OC)c(OC)c3)nc(SCCCC(=O)NO)n2)cc1"
  cat: "active"
- compound: "CCOC(=O)c1cc(C(=O)c2ccc(OC)c(OC)c2)n2ccncc12"
  cat: "inactive"
- compound: "CN(C)CCN(Cc1ccccc1)c1ccc2ccccc2n1"
  cat: "inactive"

I would be grateful if you could indicate the recorded call for COc1cc(C)ccc1Oc1nc(Nc2ccc(N3CCOCC3)cc2)ncc1NC(=O)Nc1cc(C(F)(F)F)cc(C(F)(F)F)c1 .
inactive

I would be grateful if you could indicate the recorded call for Nc1nc(Cl)nc2c1ncn2C1O[C@H](CO)[C@@H](O)[C@@H]1F (stereo not given in full) .
active

I would be grateful if you could indicate the recorded call for CCOC(=O)CC(S(=O)(=O)c1ccccc1)S(=O)(=O)c1ccccc1 .
inactive

I would be grateful if you could indicate the recorded call for Cc1cc(CC(C)CC(C)(C)C)n(O)c(=O)c1 (stereo not given) (tested in a mixture with another compound) .
active

I would be grateful if you could indicate the recorded call for Nc1cc(-c2ccncc2)c[nH]c1=O .
inactive

---

Test system: MALME-3M melanoma
Test: NCI-60 one-dose screen, 48 h (100 = growth as untreated, 0 = no growth, -100 = all killed)
Conditions: 10 µM
This is part of a sample that, as a whole, favours compounds with a hit. Of some 83,000 tested, about 20% had one in any assay.
Parameter threshold = -10%. Response is T when growth meets or exceeds it, else F.

- compound: "CN(C)CCCOc1ccc(NC2=C(Cl)C(=O)C(Nc3ccc(OCCCN(C)C)cc3)=C(Cl)C2=O)cc1"
  cat: "F"

Threshold query (growth >= -10%) on O=C1/C=C/[C@@H](O)[C@@H]2C[C@@H](O)C[C@H]2/C=C/CCC[C@H](C(F)(F)F)O1
F

Threshold query (growth >= -10%) on COc1cc2c(Nc3ccc(S(N)(=O)=O)cc3)ncnc2c(OC)c1OC
T

Threshold query (growth >= -10%) on CC1(C)N=C(N)N=C(N)N1c1cccc(C#N)c1
T

Threshold query (growth >= -10%) on CCN1CC(CCN2CCOCC2)C(C(c2ccccc2)c2ccccc2)C1=O (stereo not given)
T

---

Tested on: UACC-62 melanoma
Experiment: NCI-60 one-dose screen, 48 h (100 = growth as untreated, 0 = no growth, -100 = all killed)
Details: 10 µM
This is part of a sample that, as a whole, favours compounds with a hit. Of some 83,000 tested, about 20% had one in any assay.
outcome measure: growth (%)
The response must be a number in % with no trailing unit.

These solved cases illustrate the format of a correct answer.
- compound: "COc1ccc2c(c1)C(CC(=O)NN)CCC2 (stereo not given)"
  growth, %: 104
- compound: "COc1ccc(/C(=N\\N)C(=O)c2ccccc2)cc1 (tested in a mixture with another compound)"
  growth, %: 92.8
- compound: "NC(N)=N/N=C(\\N=Nc1ccccc1)c1ccc(Cl)cc1"
  growth, %: -29.6
- compound: "CN1CCN(CCC(=O)Nc2cccc(-n3cc(-c4ccncc4)c(-c4ccc(Cl)c(O)c4)n3)c2)CC1"
  growth, %: 46.9

Note: attention shifts to another entry.
Fill blank: measured growth of the compound COc1ccc(Cl)cc1Nc1nc(C(F)(F)F)ccc1C(=O)N/N=C/c1cc(OC)c(OC)c(OC)c1 is ____.
-48

---

Test system: MOLT-4 leukemia
Assay: NCI-60 one-dose screen, 48 h
Conditions: 10 µM
About 83,000 compounds went through this panel and 20% of them were active in at least one assay; those are over-represented in the sample as a whole. The source made the active and inactive calls. The calls were made as follows: active = growth percent below 10; inactive = the rest.
Please reply with one of these outcomes: active, inactive

Known results for molecules:
- molecule: "O=C(Nc1nc(-c2ccccc2)nc2c1sc(=S)n2-c1ccccc1)C(F)(F)F"
  cat: "inactive"
- molecule: "Cc1c2c(nn1C(=O)c1nn(-c3ccc(Cl)cc3)cc1O)-c1ccccc1CC2"
  cat: "active"
- molecule: "Nc1ccc(-c2cccs2)cc1NC(=O)c1ccc(CCCC(=O)Nc2ccc(C3CC3N)cc2)cc1 (stereo unspecified)"
  cat: "inactive"
- molecule: "O=C1c2ccccc2-c2c1c1cccnc1c(=O)n2C[C@H](O)CO"
  cat: "active"
- molecule: "CCCCCCCCCCOC(c1ccccc1)c1ccccc1"
  cat: "inactive"
- molecule: "Nc1ccccc1NC(=O)c1ccc(CCCC(=O)Nc2ccc(C3CC3N)cc2)cc1 (stereo unspecified)"
  cat: "inactive"
- molecule: "CC(=O)Nc1ccc(S(=O)(=O)N/N=C(\\C)c2ccc(C)cc2C)cc1"
  cat: "inactive"
- molecule: "CC(C)c1cc(N=O)cc(C(C)C)c1O"
  cat: "inactive"
- molecule: "CCN1C(=O)CC(SC2CC(=O)N(CC)C2=O)C1=O (stereo unspecified)"
  cat: "inactive"
- molecule: "CC(C)(C)OC(=O)CC(S(=O)(=O)c1ccccc1)S(=O)(=O)c1ccccc1"
  cat: "inactive"

Pending molecule:
I would be grateful if you could indicate the recorded call for N#CC1=CC2CN(Cc3ccccc3)C1C1C(=O)N(c3ccccc3)C(=O)C21 (stereo unspecified) .
inactive

---

Test system: A549/ATCC NSCLC
Assay: NCI-60 one-dose screen, 48 h (100 = growth as untreated, 0 = no growth, -100 = all killed)
Conditions: 10 µM
The panel holds about 83,000 compounds, 20% with a hit somewhere; the sample as a whole holds those more often. Calls of active or inactive are those of the source. How the source made its calls: active means growth percent below 10; inactive means the rest.
Below, each entry is listed alongside its reported growth.

These solved cases illustrate the format of a correct answer.
- molecule: "COc1ccc(/C(C#N)=C/c2ccccc2OC)cc1"
  outcome measure: "growth"
  obs value: "36.2% (inactive)"
- molecule: "CCOC(=O)C1C(C(=O)OCC)C2C(=O)C3C(C(=O)OCC)C(C(=O)OCC)C3C(=O)C12 (stereo not given)"
  outcome measure: "growth"
  obs value: "100% (inactive)"
- molecule: "CCCCN1C(=O)CC(SC2CC(=O)N(CCCC)C2=O)C1=O (stereo not given)"
  outcome measure: "growth"
  obs value: "119% (inactive)"
- molecule: "Cc1c(C(N)=O)sc2c1c(=O)n(Cc1ccccc1)c1nnc(-c3ccc(Br)cc3)n21"
  outcome measure: "growth"
  obs value: "10.1% (inactive)"

Fill blank: measured growth of the molecule S=C(NCc1ccccc1)NCc1ccccc1 is ____.
86.1% (inactive)

Fill blank: measured growth of the molecule O=C(CCCCNC(=O)c1nc(-c2ccccc2)n(-c2ccccc2)n1)NO is ____.
84.2% (inactive)

Fill blank: measured growth of the molecule OC[C@H]1OC([S-])[C@H](O)[C@@H](O)[C@@H]1O.[Au+] (stereo not given in full) is ____.
95.7% (inactive)

---

System: SN12C renal
Test: NCI-60 one-dose screen, 48 h
Conditions: 10 µM
Compounds without any hit were thinned out: in the full panel of roughly 83,000, 20% have a hit. Activity calls are given as the source filed them. The calls were made as follows: active = growth percent below 10; inactive = the rest.
Please reply with one of these outcomes: active, inactive

Known results for molecules:
- molecule: "COc1ccc2c(c1)OC(N)=C(C#N)C2c1cc(OC)c(OC)c(OC)c1 (stereo not given)"
  cat: "inactive"
- molecule: "CCN(CC)CCN1c2nc3ccccc3cc2Sc2cc3ccccc3nc21"
  cat: "inactive"
- molecule: "CC(=O)Nc1ccc2c(c1)C(=O)c1cccc(C(=O)O)c1-2"
  cat: "inactive"
- molecule: "COc1ccc(-c2cc(-c3ccc(OC)c(OC)c3)nc(SCCCC(=O)NO)n2)cc1"
  cat: "active"
- molecule: "COc1ccc2cc(-c3nc4ccccc4s3)c(Cl)nc2c1OC"
  cat: "inactive"

I would be grateful if you could indicate the recorded call for C[C@@H](O)[C@H]1C(=O)N2C(C(=O)O)=C(SC3CN[C@H](C(=O)N(C)C)C3)[C@H](C)[C@H]12 (stereo not given in full) .
inactive

I would be grateful if you could indicate the recorded call for COc1cc2ncnc(NC3CCC(O)CC3)c2cc1OC (stereo not given) .
inactive

I would be grateful if you could indicate the recorded call for Cc1c2c(nn1C(=O)c1nn(-c3ccc(Cl)cc3)cc1O)-c1ccccc1CC2 .
inactive

I would be grateful if you could indicate the recorded call for COc1ccc(/C(C#N)=C/c2ccccc2OC)cc1 .
inactive

I would be grateful if you could indicate the recorded call for CCC(=O)OC1CCC2C3CCC(=O)OC3C(C)(CCC(=O)O)CC12C (stereo not given) .
inactive

I would be grateful if you could indicate the recorded call for COc1cc2cc(Oc3ccc(NC(=O)Nc4ccc(C(F)(F)F)cc4)cc3)c(C)nc2cc1OC .
inactive

I would be grateful if you could indicate the recorded call for COc1ccc([C@H]2[C@H](C(=O)Nc3cccnc3)c3ccccc3C(=O)N2c2ccccc2)cc1 .
inactive

I would be grateful if you could indicate the recorded call for O=C1/C=C/[C@@H](O)[C@@H]2C[C@@H](O)C[C@H]2/C=C/CCC[C@H](CCc2ccc(NC(=S)Nc3ccc4c(c3)C(=O)OC43c4ccc(O)cc4Oc4cc(O)ccc43)cc2)O1 .
inactive

I would be grateful if you could indicate the recorded call for O=C1CC(=O)N(C(=O)c2nn(-c3ccc(Cl)cc3)cc2O)N1 .
inactive

I would be grateful if you could indicate the recorded call for O[C@@H]1CO[C@H]2[C@@H]1OC[C@@H]2O .
inactive

I would be grateful if you could indicate the recorded call for O=C(CC(CC(=O)c1ccccc1)c1ccccc1O)c1ccccc1 .
inactive
